SYSTEM_UNDER_TEST: T1, human MSLN-R3-3 polypeptide (human)
T1 construct: also called human MSLN-R3-3 protein; hMSLN-R3-3
METHOD_DESCRIPTION: ELISA, coated antigen; antibody 1 nM
EXPERIMENTAL_ENDPOINT: OD450 (OD450)
Quick note: give the figure in OD450, leave out the unit.

S009-F3.7.3 (antibody, human IgG1, kappa, V domains shown, Human-murine chimeric antibody: murine VH/VL on human IgG1 heavy chain constant region and human kappa constant region) VH: EVNFEESGGGLVQPGGSMKLSCVASGFTFSNYWMNWVRQSPEKGLEWVAQIRLKSDNYATHYAESVKGRFTISRDDFKSSVYLQMNNLRAEDTGIYYCTVGTGGYWGQGTTLTVSS VL: DIVLTQSPASLAMSLGKRATISCRASESVSIVGTNVIHWFQQKPGQPPKLLIYHASNLETGVPARFSGSGSGTDFTLTIDPVEEDDVAIYHCLQSRKIPWTFGGGTKLEIKR ... 0.07
S009-F3.74.20 (antibody, human IgG1, kappa, V domains shown, Human-murine chimeric antibody, human IgG1/kappa constant regions) VH: RVQLQQSGAELVRPGASVTLSCKASGYTFTDSEMHWVKQTPVHGLEWIGAIDPEIDGTAYNQNFRDKAILTADKSSSTAYMELRSLTSEDSAVYYCTTYFGSGYGYFDVWGTGTTVTVSS VL: DVVMTQTPLSLSVSLGDQASISCRSSQSLVYSNGNTYLHWFLQKPGQSPKLLIYKVSNRFSGVPDRFSGSGSGTDFTLKINRVEAEDLGVYFCSQSTHIPFTFGAGTKLELKR ... 1.83

Field: next binder
Consider the binder shown here: S009-F3.80.22 (antibody, human IgG1, kappa, V domains shown, Human-murine chimeric antibody, human IgG1/kappa constant regions) VH: QVQLQQSGAELVRPGASVTLSCKASGYTFTDYEIHWVKQTPVHGLEWIGAFDPEIGGSAYNQKFKDRATLTADKSSSTAYMELHSLTAEDSAVYYCTDYYGSSSGYFDVWGTGTTVTVSS VL: DVVMTQTPLSLPVSLGDQASISCRSSQSLEHNNGNTYLHWFLHKPGQSPKLLIYKVSNRFSGVPDRFSGSGSGTDFTLKISRVEAEDLGVYFCSQSTHVPFTFGSGTKLEIKR What is its recorded OD450?
1.84
